Measured values drawn from paper PMC5733478 for this set.

Recorded % 25 nM CA200645 binding values for a group of molecules are listed next.
assay_system: human A3AR (Homo sapiens)
Construct: expressed in transfected cells
experiment_description: LOPAC library primary screen: single concentration (10 μM) inhibition of 25 nM CA200645 binding, PHERAstar FS
Counter-ions that a name gives are not always drawn.
Enter your answer as a number in %; do not include the unit.

Some molecules with known % 25 nM CA200645 binding results, for comparison:
| molecule | reported_value |
| --- | --- |
| CC(O)(CS(=O)(=O)c1ccc(F)cc1)C(=O)Nc1ccc(C#N)c(C(F)(F)F)c1 (stereo not drawn) [Bicalutamide (CDX)] | 96.9 |
| COc1cc(C(O)C(=O)O)ccc1O (racemic) [(±)-Vanillylmandelic acid] | 97.4 |
| O=C1NC(=O)C(c2ccccc2)(c2ccccc2)N1 | 95.9 |

Please turn your attention to the following entry.
Task: Can you look up the measured % 25 nM CA200645 binding of CCCCc1ncc(/C=C(\Cc2cccs2)C(=O)O)n1Cc1ccc(C(=O)O)cc1 [Eprosartan mesylate] for me?
Result: 97.5

====

assay_system: human A3AR (Homo sapiens)
Construct: expressed in transfected cells
experiment_description: LOPAC library primary screen: single concentration (10 μM) inhibition of 25 nM CA200645 binding, PHERAstar FS
Where a name gives a salt, the structure may show the parent alone.
experimental_readout: % 25 nM CA200645 binding

Some molecules with known % 25 nM CA200645 binding results, for comparison:
| molecule | experimental_readout | reported_value |
| --- | --- | --- |
| O=C1NC(=O)/C(=C/c2ccc(-c3ccc(F)cc3O)o2)S1 [AS-252424] | % 25 nM CA200645 binding | 45.8 ± 20.9% |
| C/C(=C\c1ccc(C(=O)O)cc1)c1ccc2c(c1)C(C)(C)CCC2(C)C [TTNPB] | % 25 nM CA200645 binding | 92.9 ± 11.5% |
| O=c1onc2n1-c1cc(Br)ccc1OC2 [NS 2028] | % 25 nM CA200645 binding | 100.2 ± 8.6% |

Task: For the record OC(CCN1CCCCC1)(c1ccccc1)C1CCCCC1 (stereo not drawn) [Trihexyphenidyl hydrochloride] , what value of % 25 nM CA200645 binding is listed for human A3AR (Homo sapiens)?
Result: 99.4 ± 5.7%

Task: Entry to check: O=C1NCC2(CCN(CCc3ccccc3)CC2)O1 [Fenspiride hydrochloride]
Result: 81.2 ± 5.0%

Task: Entry to check: c1ccc(C(NCc2cccnc2)(c2ccccc2)c2ccccc2)cc1 [UCL 2077]
Result: 52.2 ± 5.4%

Task: Entry to check: C=CC[C@H](N)C(=O)O [L-allylglycine]
Result: 98.5 ± 1.7%

Task: Entry to check: Cl.O=C(c1ccc(OCCCc2cnc[nH]2)cc1)C1CC1 [Ciproxifan hydrochloride]
Result: 102.4 ± 6.2%

Task: Entry to check: COc1cc(OC)cc(-c2cc3cnc(N)nc3nc2NC(=O)NC(C)(C)C)c1 [PD-166866]
Result: 34.3 ± 9.7%

Task: Entry to check: CC(=O)SCC[N+](C)(C)C.[Cl-] [Acetylthiocholine chloride]
Result: 95.7 ± 4.8%

====

assay_system: human A3AR (Homo sapiens, UniProt P0DMS8)
Construct: expressed in transfected cells
Sequence (P0DMS8 whole entry): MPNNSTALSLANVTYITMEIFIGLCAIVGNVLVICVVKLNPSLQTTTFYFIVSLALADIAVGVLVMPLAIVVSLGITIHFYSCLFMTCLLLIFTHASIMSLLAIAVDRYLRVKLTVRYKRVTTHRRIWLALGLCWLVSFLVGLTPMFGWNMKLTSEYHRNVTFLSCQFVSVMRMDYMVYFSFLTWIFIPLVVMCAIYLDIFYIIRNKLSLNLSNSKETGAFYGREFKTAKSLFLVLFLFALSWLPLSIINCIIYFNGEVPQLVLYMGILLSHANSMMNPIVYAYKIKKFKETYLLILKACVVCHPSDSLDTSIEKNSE
experiment_description: LOPAC library primary screen: single concentration (10 μM) inhibition of 25 nM CA200645 binding, PHERAstar FS
Recorded % 25 nM CA200645 binding values for a group of molecules are listed next.

| molecule | % 25 nM CA200645 binding |
| --- | --- |
| CC[C@@H](C(N)=O)N1CCCC1=O [Levetiracetam] | 102.2 ± 9.6% |

Task: Can you look up the measured % 25 nM CA200645 binding of Cc1ccc([N+](=O)[O-])cc1S(=O)(=O)N(C)C [BRL 50481] for me?
Result: 82.8 ± 17.4%

Task: Entry to check: Cc1cccc(/C=C/c2ccccc2)n1 [SIB 1893]
Result: 88.4 ± 9.6%
